test: Tested for inhibition of E-selection expression by ELISA at the dose of 30 uM
pIC50: −log10 of the molar value.

>  <Molecule>
COc1ccc2c(c1)c(OC(C)C)c(C(N)=O)[s+]2[O-] (stereo unspecified)

>  <pIC50>
5.18

$$$$

###

Reported values of pIC50 for individual entries
assay: Tested for inhibition of E-selectin expression by ELISA at the dose of 30 uM
pIC50: −log10 of the molar value.

>  <Smiles code>
CC(C)Oc1c(C(N)=O)sc2ccc(O)cc12

>  <pIC50>
5.48

$$$$
>  <Smiles code>
CNC(=O)c1sc2ccc(OC)cc2c1OC(C)C

>  <pIC50>
5.85

$$$$
